# experimental.protocol: Dissociation constant, pKa of compound by spectrophotometric analysis
# Format: physicochemical
reported.property: pKa

Item: `CNc1nc(Nc2ccc(-n3cnc(C)n3)c(OC)c2)nc2c1CC[C@H]2c1ccc(F)cc1` | pKa: 5.9
